assay: in vivo; settings: rat, sc, 3 mg/kg
readout_type: concentration at […] (ng/mL)
Output spec: scalar in ng/mL, unitless text.

[
  {
    "smiles_entry": "[2H]C([2H])(Oc1ccc(F)cc1)C([2H])([2H])C([2H])([2H])N1CC[C@H]2[C@@H](C1)c1cccc3c1N2CC(=O)N3",
    "unit_abbreviation": "ng/mL",
    "reported_measurement": 48.2
  }
]

With those in mind, consider the next compound.
q: Would you kindly share the measured concentration at […] for `[2H]c1c([2H])c(OC([2H])([2H])C([2H])([2H])C([2H])([2H])N2CC[C@H]3[C@@H](C2)c2cccc4c2N3C([2H])([2H])C(=O)N4)c([2H])c([2H])c1F` ?
a: 46

* * *

experiment: in vivo; details: rat, sc, 3 mg/kg
readout_type: concentration at 2 h (ng/mL)
Output spec: scalar in ng/mL, unitless text.

[
  {
    "smiles_entry": "[2H]c1c([2H])c(OC([2H])([2H])C([2H])([2H])C([2H])([2H])N2CC[C@H]3[C@@H](C2)c2cccc4c2N3C([2H])([2H])C(=O)N4)c([2H])c([2H])c1F",
    "concentration at 2 h, ng/mL": 62.9
  }
]

q: Would you kindly share the measured concentration at 2 h for `[2H]C([2H])(Oc1ccc(F)cc1)C([2H])([2H])C([2H])([2H])N1CC[C@H]2[C@@H](C1)c1cccc3c1N2CC(=O)N3` ?
a: 65.2

* * *

target: dopamine D2S receptor (Homo sapiens); construct: expressed in transfected cells; host or cells: HEK-293; assay: Radioligand binding assay, human recombinant receptor in HEK cells; settings: read-out: % Inhibition (mean) of control specific binding
Sequence (P14416 1-414 isoform P14416-2): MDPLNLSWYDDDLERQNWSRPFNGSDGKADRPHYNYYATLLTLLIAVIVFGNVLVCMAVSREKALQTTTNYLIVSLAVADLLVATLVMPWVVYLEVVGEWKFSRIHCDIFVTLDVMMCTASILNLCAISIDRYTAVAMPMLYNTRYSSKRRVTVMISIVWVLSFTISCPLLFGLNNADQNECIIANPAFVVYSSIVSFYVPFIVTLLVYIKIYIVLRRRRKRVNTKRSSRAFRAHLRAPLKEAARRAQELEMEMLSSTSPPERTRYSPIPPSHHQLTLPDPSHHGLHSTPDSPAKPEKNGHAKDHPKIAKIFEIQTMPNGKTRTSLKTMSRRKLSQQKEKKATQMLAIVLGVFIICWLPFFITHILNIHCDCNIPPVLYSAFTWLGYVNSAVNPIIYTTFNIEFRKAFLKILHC
Under this convention, T denotes inhibition at 0.3 µM strictly below 50% and F denotes inhibition at 0.3 µM at or above 50%.

Example entries begin here.
[
  {
    "smiles_entry": "[2H]C1([2H])C(=O)Nc2cccc3c2N1[C@H]1CCN(CCCOc2ccc(F)cc2)C[C@@H]31",
    "qualitative_label": "T"
  },
  {
    "smiles_entry": "O=C1CN2c3c(cccc3[C@@H]3CN(CCCOc4ccc(F)cc4)CC[C@@H]32)N1",
    "qualitative_label": "F"
  },
  {
    "smiles_entry": "[2H]C([2H])(CC([2H])([2H])N1CC[C@H]2[C@@H](C1)c1cccc3c1N2CC(=O)N3)Oc1ccc(F)cc1",
    "qualitative_label": "F"
  }
]

For the next question, use this molecule.
q: Hi there! Is inhibition at 0.3 µM for `[2H]C([2H])(CCN1CC[C@H]2[C@@H](C1)c1cccc3c1N2CC(=O)N3)Oc1ccc(F)cc1` below 50%, do you know?
a: F

* * *

assay: in vivo; conditions: rat, po, 10 mg/kg
# maps each entry to its concentration at 12 h
# output: number + unit

[
  {
    "smiles_entry": "[2H]C([2H])(Oc1ccc(F)cc1)C([2H])([2H])C([2H])([2H])N1CC[C@H]2[C@@H](C1)c1cccc3c1N2CC(=O)N3",
    "concentration at 12 h": "196 ng/mL"
  }
]

With those in mind, consider the next compound.
q: Would you kindly share the measured concentration at 12 h for `[2H]c1c([2H])c(OC([2H])([2H])C([2H])([2H])C([2H])([2H])N2CC[C@H]3[C@@H](C2)c2cccc4c2N3C([2H])([2H])C(=O)N4)c([2H])c([2H])c1F` ?
a: 181 ng/mL

* * *

# maps each entry to its concentration at 0.5 h
test: in vivo; conditions: rat, po, 10 mg/kg
Output spec: scalar in ng/mL, unitless text.

[
  {
    "smiles_entry": "[2H]C([2H])(Oc1ccc(F)cc1)C([2H])([2H])C([2H])([2H])N1CC[C@H]2[C@@H](C1)c1cccc3c1N2CC(=O)N3",
    "concentration at 0.5 h / ng/mL": 55.7
  }
]

q: Would you kindly share the measured concentration at 0.5 h for `[2H]c1c([2H])c(OC([2H])([2H])C([2H])([2H])C([2H])([2H])N2CC[C@H]3[C@@H](C2)c2cccc4c2N3C([2H])([2H])C(=O)N4)c([2H])c([2H])c1F` ?
a: 45.8

* * *

# maps each entry to its concentration at 6 h
assay: in vivo; conditions: rat, sc, 3 mg/kg
Output spec: scalar in ng/mL, unitless text.

[
  {
    "smiles_entry": "[2H]c1c([2H])c(OC([2H])([2H])C([2H])([2H])C([2H])([2H])N2CC[C@H]3[C@@H](C2)c2cccc4c2N3C([2H])([2H])C(=O)N4)c([2H])c([2H])c1F",
    "concentration at 6 h, ng/mL": 14.1
  }
]

With those in mind, consider the next molecule.
q: Would you kindly share the measured concentration at 6 h for `[2H]C([2H])(Oc1ccc(F)cc1)C([2H])([2H])C([2H])([2H])N1CC[C@H]2[C@@H](C1)c1cccc3c1N2CC(=O)N3` ?
a: 15

* * *

experiment: in vivo; conditions: rat, sc, 3 mg/kg
readout_type: concentration at 72 h (ng/mL)
Output spec: scalar in ng/mL, unitless text.

[
  {
    "smiles_entry": "[2H]c1c([2H])c(OC([2H])([2H])C([2H])([2H])C([2H])([2H])N2CC[C@H]3[C@@H](C2)c2cccc4c2N3C([2H])([2H])C(=O)N4)c([2H])c([2H])c1F",
    "concentration at 72 h [ng/mL]": 1.4
  }
]

q: Would you kindly share the measured concentration at 72 h for `[2H]C([2H])(Oc1ccc(F)cc1)C([2H])([2H])C([2H])([2H])N1CC[C@H]2[C@@H](C1)c1cccc3c1N2CC(=O)N3` ?
a: 1

* * *

experiment: in vivo; settings: rat, po, 10 mg/kg
readout_type: Tmax (h)
Output spec: scalar in h, unitless text.

[
  {
    "smiles_entry": "[2H]c1c([2H])c(OC([2H])([2H])C([2H])([2H])C([2H])([2H])N2CC[C@H]3[C@@H](C2)c2cccc4c2N3C([2H])([2H])C(=O)N4)c([2H])c([2H])c1F",
    "Tmax / h": 6
  }
]

q: Would you kindly share the measured Tmax for `[2H]C([2H])(Oc1ccc(F)cc1)C([2H])([2H])C([2H])([2H])N1CC[C@H]2[C@@H](C1)c1cccc3c1N2CC(=O)N3` ?
a: 6

* * *

assay: in vivo; conditions: rat, sc, 3 mg/kg
readout_type: AUC (ng·h/mL)
Output spec: scalar in ng·h/mL, unitless text.

[
  {
    "molecule": "[2H]C([2H])(Oc1ccc(F)cc1)C([2H])([2H])C([2H])([2H])N1CC[C@H]2[C@@H](C1)c1cccc3c1N2CC(=O)N3 [Example 2]",
    "AUC (ng·h/mL)": 492
  }
]

q: Would you kindly share the measured AUC for [2H]c1c([2H])c(OC([2H])([2H])C([2H])([2H])C([2H])([2H])N2CC[C@H]3[C@@H](C2)c2cccc4c2N3C([2H])([2H])C(=O)N4)c([2H])c([2H])c1F [Example 8] ?
a: 494

* * *

assay: in vivo; settings: rat, po, 10 mg/kg
readout_type: concentration at 8 h (ng/mL)
Output spec: scalar in ng/mL, unitless text.

[
  {
    "molecule": "[2H]C([2H])(Oc1ccc(F)cc1)C([2H])([2H])C([2H])([2H])N1CC[C@H]2[C@@H](C1)c1cccc3c1N2CC(=O)N3 [Example 2]",
    "concentration at 8 h, ng/mL": 200
  }
]

q: Would you kindly share the measured concentration at 8 h for [2H]c1c([2H])c(OC([2H])([2H])C([2H])([2H])C([2H])([2H])N2CC[C@H]3[C@@H](C2)c2cccc4c2N3C([2H])([2H])C(=O)N4)c([2H])c([2H])c1F [Example 8] ?
a: 187

* * *

experiment: in vivo; details: rat, po, 10 mg/kg
# maps each entry to its concentration at 0.033 h
Output spec: scalar in ng/mL, unitless text.

[
  {
    "smiles_entry": "[2H]C([2H])(Oc1ccc(F)cc1)C([2H])([2H])C([2H])([2H])N1CC[C@H]2[C@@H](C1)c1cccc3c1N2CC(=O)N3",
    "concentration at 0.033 h / ng/mL": 1
  }
]

With those in mind, consider the next compound.
q: Would you kindly share the measured concentration at 0.033 h for `[2H]c1c([2H])c(OC([2H])([2H])C([2H])([2H])C([2H])([2H])N2CC[C@H]3[C@@H](C2)c2cccc4c2N3C([2H])([2H])C(=O)N4)c([2H])c([2H])c1F` ?
a: 1.3

All figures here come from patent US12364694B2.
